- ASSAY TARGET: EGFR L858R/T790M/C797S (Homo sapiens, UniProt P00533, C797S/L858R/T790M)
- Sequence (P00533 25-1210 T790M/C797S/L858R): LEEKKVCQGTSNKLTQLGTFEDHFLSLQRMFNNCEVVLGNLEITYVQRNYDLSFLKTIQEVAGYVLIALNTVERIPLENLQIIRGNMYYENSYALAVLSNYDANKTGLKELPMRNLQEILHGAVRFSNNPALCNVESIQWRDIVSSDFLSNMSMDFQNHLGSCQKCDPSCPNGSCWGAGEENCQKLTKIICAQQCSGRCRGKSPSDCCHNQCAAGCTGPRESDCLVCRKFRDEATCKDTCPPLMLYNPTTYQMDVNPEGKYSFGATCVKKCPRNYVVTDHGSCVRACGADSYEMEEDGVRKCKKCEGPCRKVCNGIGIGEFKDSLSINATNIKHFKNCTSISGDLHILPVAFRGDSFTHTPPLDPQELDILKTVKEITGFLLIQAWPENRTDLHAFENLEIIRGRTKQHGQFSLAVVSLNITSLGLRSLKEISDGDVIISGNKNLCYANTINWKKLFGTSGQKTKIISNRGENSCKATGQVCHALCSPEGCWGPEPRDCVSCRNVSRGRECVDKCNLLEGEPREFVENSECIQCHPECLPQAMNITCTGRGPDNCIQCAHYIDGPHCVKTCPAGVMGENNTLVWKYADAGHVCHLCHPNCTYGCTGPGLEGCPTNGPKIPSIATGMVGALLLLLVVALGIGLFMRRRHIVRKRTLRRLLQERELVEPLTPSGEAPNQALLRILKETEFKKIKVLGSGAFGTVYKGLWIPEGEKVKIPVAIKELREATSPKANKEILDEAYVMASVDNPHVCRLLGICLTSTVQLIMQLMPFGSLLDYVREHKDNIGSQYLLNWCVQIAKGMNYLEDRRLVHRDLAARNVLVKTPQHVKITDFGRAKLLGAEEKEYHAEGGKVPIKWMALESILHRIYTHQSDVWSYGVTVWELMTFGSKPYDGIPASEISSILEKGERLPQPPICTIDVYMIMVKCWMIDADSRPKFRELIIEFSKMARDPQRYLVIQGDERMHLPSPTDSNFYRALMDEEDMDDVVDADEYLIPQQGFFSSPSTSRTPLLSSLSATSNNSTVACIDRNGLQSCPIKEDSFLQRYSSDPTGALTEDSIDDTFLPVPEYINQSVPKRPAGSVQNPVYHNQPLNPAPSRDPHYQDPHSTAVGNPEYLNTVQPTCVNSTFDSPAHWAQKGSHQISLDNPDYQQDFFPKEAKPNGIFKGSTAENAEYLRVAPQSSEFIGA
- TEST METHOD NOTES: Biochemical EGFR kinase assay (Lance Ultra TR-FRET), triple mutant L858R/T790M/C797S
- MEASUREMENT CONDITIONS: Km ATP; read-out: IC50 L858R/T790M/C797S (nM) Km ATP
- Protocol: Biochemical EGFR kinase assays were conducted using Lance Ultra time-resolved fluorescence resonance energy transfer (TR-FRET) technology from Perkin-Elmer. […] Each kinase reactions were incubated at room temperature for 1 hour and then stopped by the addition of 4 μL of stop solution (10 mM EDTA). […] After 60 minutes incubation at room temperature the LANCE signal was measured on an EnVision Multilabel Reader (Perkin-Elmer). […]
Each entry belongs to exactly one class, chosen by where its IC50 falls: lower bin = under 0.2 nM, middle bin = from 0.2 nM up to 0.5 nM, upper bin = 0.5 nM and over

Below are worked cases with known answers.
SMILES	GROUP
CN(C)CC[C@H]1CC[C@@H](Nc2cc(Nc3nc(-c4cnn(S(=O)(=O)C5CC5)c4)ncc3F)ncc2-c2ccn(C(F)F)n2)CC1	lower bin
Cn1nc(-c2cnc(Nc3ccnc(-c4cnn(S(=O)(=O)C5CC5)c4)n3)cc2N[C@H]2CC[C@@H](C(C)(C)O)CC2)cc1C(C)(C)O	middle bin
CN(CC(F)F)C[C@H]1CC[C@@H](Nc2cc(Nc3ccnc(-c4cnn(S(=O)(=O)C5CC5)c4)n3)ncc2-c2ccn(C)n2)CC1	upper bin
O=S(=O)(C1CC1)n1cc(-c2nccc(Nc3cc(N[C@H]4CC[C@@H](CC(F)F)CC4)c(-c4ccn(C(F)F)n4)cn3)n2)cn1	upper bin
CN(CC(F)F)C(=O)[C@H]1CC[C@@H](Nc2cc(Nc3ccnc(-c4cnn(S(=O)(=O)C5CC5)c4)n3)ncc2-c2ccn(C(F)F)n2)CC1	middle bin

## Input Class label required: CN(C)C[C@H]1CC[C@@H](Nc2cc(Nc3ccnc(-c4cnn(S(=O)(=O)C5CC5)c4)n3)ncc2-c2cc3n(n2)CCCC3)CC1
## Output lower bin

## Input Place this compound in its band: CN[C@H]1CC[C@H](CNc2cc(Nc3ccnc(-c4cnn(S(=O)(=O)C5CC5)c4)n3)ncc2-c2ccn(C(F)F)n2)CC1
## Output lower bin

## Input Categorize the following entry: O=S(=O)(C1CC1)n1cc(-c2nccc(Nc3cc(N[C@@H]4CCC[C@H](O)C4)c(-c4csc(C(F)(F)F)n4)cn3)n2)cn1
## Output upper bin

## Input Which class holds C[C@]1(O)CC[C@H](CNc2cc(Nc3ccnc(-c4cnn(S(=O)(=O)C5CC5)c4)n3)ncc2-c2ccn(C(F)F)n2)CC1 ?
## Output middle bin

## Input Textbook exercise: identify the category of the compound given here, CN(C)CC[C@H]1CC[C@@H](Nc2cc(Nc3ccnc(-c4cnn(S(=O)(=O)C5CC5)c4)n3)ncc2-c2ccn(C)n2)CC1 , according to its measured value.
## Output lower bin

###

- ASSAY TARGET: EGFR del19/T790M/C797S (Homo sapiens, UniProt P00533, C797S/DEL746-750/T790M)
- Sequence (P00533 with tags, fused parts or gaps DEL746-750/T790M/C797S): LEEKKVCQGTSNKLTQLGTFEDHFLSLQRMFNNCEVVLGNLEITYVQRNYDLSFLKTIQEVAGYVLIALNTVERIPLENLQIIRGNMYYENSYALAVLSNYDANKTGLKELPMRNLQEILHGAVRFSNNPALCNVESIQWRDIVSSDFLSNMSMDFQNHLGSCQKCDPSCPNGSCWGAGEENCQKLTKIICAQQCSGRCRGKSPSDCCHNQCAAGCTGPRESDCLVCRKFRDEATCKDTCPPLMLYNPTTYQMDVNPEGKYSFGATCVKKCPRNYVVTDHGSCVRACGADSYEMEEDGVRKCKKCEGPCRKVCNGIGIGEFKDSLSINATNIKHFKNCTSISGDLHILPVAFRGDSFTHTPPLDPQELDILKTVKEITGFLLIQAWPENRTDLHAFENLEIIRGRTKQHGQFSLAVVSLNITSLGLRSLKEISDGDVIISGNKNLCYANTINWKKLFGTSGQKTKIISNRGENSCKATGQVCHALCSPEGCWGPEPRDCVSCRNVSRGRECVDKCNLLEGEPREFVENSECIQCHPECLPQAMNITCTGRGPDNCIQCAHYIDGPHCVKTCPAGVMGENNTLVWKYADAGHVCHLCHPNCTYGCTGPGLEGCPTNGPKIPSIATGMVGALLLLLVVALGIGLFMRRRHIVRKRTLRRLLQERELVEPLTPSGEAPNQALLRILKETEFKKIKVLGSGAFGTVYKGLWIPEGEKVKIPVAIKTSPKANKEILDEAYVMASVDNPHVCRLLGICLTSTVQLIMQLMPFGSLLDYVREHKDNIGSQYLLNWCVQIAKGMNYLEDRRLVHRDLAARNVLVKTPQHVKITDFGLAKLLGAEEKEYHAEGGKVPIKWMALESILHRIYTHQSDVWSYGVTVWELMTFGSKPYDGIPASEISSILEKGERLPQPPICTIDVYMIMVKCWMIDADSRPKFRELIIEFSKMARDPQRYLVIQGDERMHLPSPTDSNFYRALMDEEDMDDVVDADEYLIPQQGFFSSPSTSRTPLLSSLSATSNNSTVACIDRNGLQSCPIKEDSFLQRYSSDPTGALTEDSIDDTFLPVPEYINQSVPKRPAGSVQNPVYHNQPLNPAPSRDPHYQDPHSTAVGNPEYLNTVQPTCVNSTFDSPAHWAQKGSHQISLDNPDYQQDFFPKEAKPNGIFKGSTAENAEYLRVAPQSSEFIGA
- TEST METHOD NOTES: Biochemical EGFR kinase assay (Lance Ultra TR-FRET), triple mutant del19/T790M/C797S
- MEASUREMENT CONDITIONS: IC50 del19/T790M/C797S (nM) 100 μM ATP, 100 μM ATP
The threshold is 0.7 nM. Values of IC50 beneath it are tagged met; values meeting or exceeding it are tagged not met.

MOLECULE	GROUP
CO[C@H]1CCN(c2nccc(Nc3cc(N[C@H]4CC[C@@](C)(O)CC4)c(-c4ccn(C(F)F)n4)cn3)n2)C[C@H]1F	not met
Cn1ccc(-c2cnc(Nc3ccnc(-c4cnn(S(=O)(=O)C5CC5)c4)n3)cc2N[C@H]2CCC[C@H](CO)C2)n1	met

## Input Determine whether this molecule shows IC50 lower than 0.7 nM (ties excluded): Cn1ccc(-c2cnc(Nc3ccnc(-c4cnn(S(=O)(=O)C5CC5)c4)n3)cc2N[C@H]2CC[C@@H](N(C)C)CC2)n1
## Output met

## Input Strictly below 0.7 nM in IC50? Cn1ccc(-c2cnc(Nc3ccnc(-c4cnn(S(=O)(=O)C5CC5)c4)n3)cc2NC[C@H]2CC[C@H](O)CC2)n1
## Output met

###

- ASSAY TARGET: EGFR L858R/T790M/C797S (Homo sapiens, UniProt P00533, C797S/L858R/T790M)
- TEST METHOD NOTES: Biochemical EGFR kinase assay (Lance Ultra TR-FRET), triple mutant L858R/T790M/C797S
- MEASUREMENT CONDITIONS: Km ATP; read-out: IC50 L858R/T790M/C797S (nM) Km ATP
OBSERVATION TYPE: IC50

MOLECULE	ASSAY RESULT
CNC(=O)[C@H]1CC[C@@H](Nc2cc(Nc3ccnc(-c4cnn(S(=O)(=O)C5CC5)c4)n3)ncc2-c2ccn(C(F)F)n2)CC1 [Example 24]	0.2 nM

## Input Tell me measured IC50 for CN(C)C(=O)C[C@H]1CC[C@@H](Nc2cc(Nc3ccnc(-c4cnn(S(=O)(=O)C5CC5)c4)n3)ncc2-c2ccn(C(F)F)n2)CC1 [Example 205] please.
## Output 0.2 nM

## Input Give a short answer stating reported IC50 for O=S(=O)(C1CC1)n1cc(-c2nccc(Nc3cc(N[C@H]4CC[C@H](O)C4)c(-c4ccn(C(F)F)n4)cn3)n2)cn1 [Example 20] .
## Output 0.2 nM

## Input Let me know recorded IC50 for Cn1nc(-c2cnc(Nc3ccnc(-c4cnn(S(=O)(=O)C5CC5)c4)n3)cc2NC[C@H]2CC[C@@H](O)C2)cc1C(F)(F)F [Example 261] , thanks.
## Output 0.8 nM

## Input Identify measured IC50 corresponding to Cn1nc(-c2cnc(Nc3ccnc(-c4cnn(S(=O)(=O)C5CC5)c4)n3)cc2N[C@H]2CC[C@@](C)(O)CC2)cc1C(C)(C)O [Example 293]
## Output 0.2 nM

###

- ASSAY TARGET: EGFR L858R/C797S (Homo sapiens, UniProt P00533, C797S/L858R)
- Sequence (P00533 25-1210 C797S/L858R): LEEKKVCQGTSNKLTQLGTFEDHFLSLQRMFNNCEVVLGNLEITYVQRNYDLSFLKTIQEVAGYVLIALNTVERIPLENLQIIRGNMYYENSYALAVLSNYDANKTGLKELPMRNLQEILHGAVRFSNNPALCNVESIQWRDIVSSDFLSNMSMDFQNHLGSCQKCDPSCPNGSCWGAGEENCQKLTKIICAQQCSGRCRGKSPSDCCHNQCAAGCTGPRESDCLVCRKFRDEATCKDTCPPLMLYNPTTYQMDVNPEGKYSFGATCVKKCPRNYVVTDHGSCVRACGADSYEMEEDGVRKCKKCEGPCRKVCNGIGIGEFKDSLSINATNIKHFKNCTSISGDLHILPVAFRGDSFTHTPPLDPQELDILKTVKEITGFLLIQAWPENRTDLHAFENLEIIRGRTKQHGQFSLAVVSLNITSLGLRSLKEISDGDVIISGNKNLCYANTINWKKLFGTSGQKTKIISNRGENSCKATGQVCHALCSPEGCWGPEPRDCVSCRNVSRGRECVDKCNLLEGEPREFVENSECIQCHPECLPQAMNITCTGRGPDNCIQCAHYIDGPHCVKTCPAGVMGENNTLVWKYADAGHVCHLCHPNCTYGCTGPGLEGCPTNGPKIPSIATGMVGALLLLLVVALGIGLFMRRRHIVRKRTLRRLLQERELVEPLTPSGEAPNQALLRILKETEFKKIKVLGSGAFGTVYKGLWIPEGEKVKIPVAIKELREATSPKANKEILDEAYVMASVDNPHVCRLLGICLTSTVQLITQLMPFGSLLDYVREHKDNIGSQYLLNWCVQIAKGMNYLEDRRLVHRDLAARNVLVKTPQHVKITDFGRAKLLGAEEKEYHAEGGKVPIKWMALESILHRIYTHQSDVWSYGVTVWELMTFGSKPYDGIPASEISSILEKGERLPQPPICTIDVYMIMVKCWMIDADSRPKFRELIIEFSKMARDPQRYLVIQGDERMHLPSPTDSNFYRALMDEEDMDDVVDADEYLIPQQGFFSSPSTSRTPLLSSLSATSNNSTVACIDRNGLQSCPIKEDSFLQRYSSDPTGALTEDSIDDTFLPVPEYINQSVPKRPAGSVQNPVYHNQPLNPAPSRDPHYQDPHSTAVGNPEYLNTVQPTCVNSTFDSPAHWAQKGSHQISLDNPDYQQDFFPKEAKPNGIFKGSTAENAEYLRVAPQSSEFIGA
- TEST METHOD NOTES: Biochemical EGFR kinase assay (Lance Ultra TR-FRET), double mutant L858R/C797S
- MEASUREMENT CONDITIONS: IC50 L858R/C797S (nM) 100 μM ATP, 100 μM ATP
OBSERVATION TYPE: IC50 (nM)
Quick reminder: number only, in nM, skip the unit.

// solved cases for IC50 follow
COMPOUND	ASSAY RESULT
O=C1CC[C@]2(CC[C@H](Nc3cc(Nc4ccnc(-c5cnn(S(=O)(=O)C6CC6)c5)n4)ncc3-c3ccn(C(F)F)n3)CC2)N1	3.5
CN(C)CC1(C)CCC(Nc2cc(Nc3ccnc(-c4cnn(S(=O)(=O)C5CC5)c4)n3)ncc2-c2ccn(CC(F)(F)F)n2)CC1 (centres unmarked)	576
O=S(=O)(C1CC1)n1cc(-c2nccc(Nc3cc(N[C@H]4CC[C@@H](NCCF)CC4)c(-c4nc(C(F)F)cs4)cn3)n2)cn1	22.5

## Input Quote IC50 reported for O=S(=O)(C1CC1)n1cc(-c2nccc(Nc3cc(N[C@H]4CC[C@@H](CO)CC4)c(-c4ccn(C(F)F)n4)cn3)n2)cn1 please.
## Output 13

## Input Using known records, supply IC50 for Cn1ccc(-c2cnc(Nc3ccnc(-c4cnn(S(=O)(=O)C5CC5)c4)n3)cc2N[C@H]2CCC[C@H](CO)C2)n1
## Output 4.2

## Input Given C[C@]1(O)CC[C@@H](Nc2cc(Nc3ccnc(-c4cnn(CC(F)(F)F)c4)n3)ncc2-c2ccn(C(F)F)n2)CC1 , respond with its IC50.
## Output 269

## Input Please list IC50 recorded for the compound Cn1ccc(-c2cnc(Nc3ccnc(-c4cnn(S(=O)(=O)C5CC5)c4)n3)cc2NCC2(C)CCC(O)CC2)n1 (centres unmarked)
## Output 355

## Input State its IC50: O=C1NCCCC1Nc1cc(Nc2ccnc(-c3cnn(S(=O)(=O)C4CC4)c3)n2)ncc1-c1ccn(C(F)F)n1 (centres unmarked)
## Output 182

## Input Look up and state reported IC50 for O=S(=O)(C1CC1)n1cc(-c2nccc(Nc3cc(NC4CCC(F)(CO)CC4)c(-c4cc5n(n4)CCCC5)cn3)n2)cn1 (centres unmarked)
## Output 121

## Input Supply reported IC50 belonging to this compound: Cn1ccc(-c2cnc(Nc3ccnc(-c4cnn(S(=O)(=O)C5CC5)c4)n3)cc2NC2CCCC(NCC(F)F)C2)n1 (centres unmarked)
## Output 132

## Input State its IC50 for this compound: CN(CC(F)F)C(=O)[C@H]1CC[C@@H](Nc2cc(Nc3ccnc(-c4cnn(S(=O)(=O)C5CC5)c4)n3)ncc2-c2ccn(C(F)F)n2)CC1
## Output 36.1

## Input Name the recorded IC50 of the item O=S(=O)(C1CC1)n1cc(-c2nccc(Nc3cc(N[C@H]4CC[C@](O)(CO)CC4)c(-c4ccn(C(F)F)n4)cn3)n2)cn1 in your answer.
## Output 7.8

## Input Specify measured IC50 for CN(CC(F)F)C[C@H]1CC[C@@H](Nc2cc(Nc3ccnc(-c4cnn(S(=O)(=O)C5CC5)c4)n3)ncc2-c2ccn(CC(F)F)n2)CC1 .
## Output 259
